System: Neuregulin-1 EGF-like domain
assay notes: binders of neuregulin-1 EGF-like domain, primary screen, biochemical, small-molecule microarray, 635 nm fluorescence (AID 1081);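 note: binding of the protein to compounds printed on small-molecule microarray slides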
measurement context: small-molecule microarray binding, higher = more signal
Reported composite z-score by item:
measurement name: composite z-score

{"columns": ["compound", "measurement name", "meas value"],
 "data": [
  ["Cc1ccccc1C(O)C1C=CC2C(=O)N(c3ccccc3)C(=O)C2N1Nc1ccc(C#N)cc1 (stereo not drawn)", "composite z-score", 1.25],
  ["C/C(=N\\O)C(=O)NCCCCCNC(=O)OCc1ccccc1", "composite z-score", 0.619],
  ["O=C(O)[C@@H]1Cc2c([nH]c3ccccc23)[C@@H](c2ccccc2)N1", "composite z-score", 0.125],
  ["C#CCCCON=C1C[C@@H](O)[C@@H](O)[C@@H]2[C@@H]3C(=O)N(Cc4ccc5c(c4)OCO5)C(=O)[C@@H]3CC[C@@H]12", "composite z-score", 0.562],
  ["CC(C)NC(=O)[C@@]1(Cc2ccccc2I)c2ccccc2C(=O)N(C2CCCCC2)[C@H]1c1ccc(CO)cc1", "composite z-score", 1.38],
  ["[N-]=[N+]=Nc1ccccc1C[C@@]1(C(=O)N2CCOCC2)N=C(c2ccc(OCCCO)cc2)O[C@@H]1c1ccccc1N=[N+]=[N-]", "composite z-score", 1.12],
  ["COCC(=C=CC[C@H](O)c1ccc(OCCO)cc1)C[C@H](O)c1ccccn1", "composite z-score", 1.27],
  ["COc1ccc([Si](C)(C)[C@@H]2[C@@H](CCO)O[C@]3(C(=O)N(Cc4ccc(NC(=O)[C@H](C)O)cc4)c4ccccc43)[C@H]2C)cc1", "composite z-score", 1.19]
]}
